- SYSTEM_NAME: BCL-XL/BAK (Homo sapiens)
- Sequence (Q07817 whole entry): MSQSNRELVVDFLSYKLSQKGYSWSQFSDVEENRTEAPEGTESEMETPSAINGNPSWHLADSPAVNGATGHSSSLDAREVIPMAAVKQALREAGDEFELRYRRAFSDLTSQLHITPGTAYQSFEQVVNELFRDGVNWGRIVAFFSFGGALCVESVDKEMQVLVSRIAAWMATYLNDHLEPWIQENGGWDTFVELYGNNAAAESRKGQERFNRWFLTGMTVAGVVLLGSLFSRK
- TEST_DESCRIPTION: Inhibitory activity for BCL-XL/BAK binding (Cisbio BCL-XL/BAK (BH3) binding assay kit)
RESULT_TYPE: pIC50
As a rule, pIC50 stands for the negative log10 of the concentration, concentration in M.

compound="Cc1cc(C(F)(F)F)ccc1C1=C(CN2CCN(c3ccc(C(=O)NS(=O)(=O)c4ccc(NC[C@@H]5CN(C(=O)C(C)C)CCO5)c([N+](=O)[O-])c4)c(Oc4cnc5[nH]ccc5c4)c3)CC2)CCC(C)(C)C1 [Compound 21-1]" numeric_readout=6.94
compound="Cc1cc(C(F)(F)F)ccc1C1=C(CN2CCN(c3ccc(C(=O)NS(=O)(=O)c4ccc(NC[C@H]5CN(S(C)(=O)=O)CCO5)c([N+](=O)[O-])c4)c(Oc4cnc5[nH]ccc5c4)c3)CC2)CCC(C)(C)C1 [Compound 22-1]" numeric_readout=6.98
compound="Cc1cc(C(F)(F)F)ccc1C1=C(CN2CCN(c3ccc(C(=O)NS(=O)(=O)c4ccc(NC[C@H]5CCOC5)c([N+](=O)[O-])c4)c(Oc4cnc5[nH]ccc5c4)c3)CC2)CCC(C)(C)C1 [Compound 9-1]" numeric_readout=6.66
compound="Cc1cc(C(F)(F)F)ccc1C1=C(CN2CCN(c3ccc(C(=O)NS(=O)(=O)c4ccc(NC[C@H]5CCCOC5)c([N+](=O)[O-])c4)c(Oc4cnc5[nH]ccc5c4)c3)CC2)CCC(C)(C)C1 [Compound 15-1]" numeric_readout=6.58
compound="Cc1cc(C(F)(F)F)ccc1C1=C(CN2CCN(c3ccc(C(=O)NS(=O)(=O)c4ccc(NC[C@@H]5CCCOC5)c([N+](=O)[O-])c4)c(Oc4cnc5[nH]ccc5c4)c3)CC2)CCC(C)(C)C1 [Compound 16-1]" numeric_readout=6.84

Now for another entry.
query: Notebook: pull reported pIC50 for BCL-XL/BAK (Homo sapiens), entry Cc1cc(C(F)(F)F)ccc1C1=C(CN2CCN(c3ccc(C(=O)NS(=O)(=O)c4ccc(NC[C@@H]5CCOC5)c([N+](=O)[O-])c4)c(Oc4cnc5[nH]ccc5c4)c3)CC2)CCC(C)(C)C1 [Compound 10-1]
result: 6.99

###

- SYSTEM_NAME: BCL-2/BAK (Homo sapiens, UniProt P10415)
- Sequence (P10415 whole entry): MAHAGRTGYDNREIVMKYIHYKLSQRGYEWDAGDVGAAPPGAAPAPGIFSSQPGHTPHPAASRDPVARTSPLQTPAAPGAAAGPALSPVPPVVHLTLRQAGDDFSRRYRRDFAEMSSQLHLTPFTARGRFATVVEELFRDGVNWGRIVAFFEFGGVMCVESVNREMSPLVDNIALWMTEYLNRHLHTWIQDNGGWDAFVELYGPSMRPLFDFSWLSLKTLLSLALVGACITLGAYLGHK
- TEST_DESCRIPTION: Inhibitory activity for BCL-2/BAK binding (Cisbio BCL-2/BAK (BH3) binding assay kit)
RESULT_TYPE: IC50 (nM)
Please state the figure in nM; there is no need to write the unit.

Observe how each entry below is paired with its result.
compound="Cc1cc(C(F)(F)F)ccc1C1=C(CN2CCN(c3ccc(C(=O)NS(=O)(=O)c4ccc(NC[C@H]5CN(C(=O)C(C)C)CCO5)c([N+](=O)[O-])c4)c(Oc4cnc5[nH]ccc5c4)c3)CC2)CCC(C)(C)C1 [Compound 20-1]" numeric_readout=2.06
compound="CC(=O)N1CCO[C@H](CNc2ccc(S(=O)(=O)NC(=O)c3ccc(N4CCN(CC5=C(c6ccc(C(F)(F)F)cc6C)CC(C)(C)CC5)CC4)cc3Oc3cnc4[nH]ccc4c3)cc2[N+](=O)[O-])C1 [Compound 19-1]" numeric_readout=0.97
compound="Cc1cc(C(F)(F)F)ccc1C1=C(CN2CCN(c3ccc(C(=O)NS(=O)(=O)c4ccc(NC[C@H]5CCCOC5)c([N+](=O)[O-])c4)c(Oc4cnc5[nH]ccc5c4)c3)CC2)CCC(C)(C)C1 [Compound 15-1]" numeric_readout=1.53

Kindly review the next compound as well.
query: Could you tell me which IC50 is on file for Cc1cc(C(F)(F)F)ccc1C1=C(CN2CCN(c3ccc(C(=O)NS(=O)(=O)c4ccc(NC[C@H]5CN(S(C)(=O)=O)CCO5)c([N+](=O)[O-])c4)c(Oc4cnc5[nH]ccc5c4)c3)CC2)CCC(C)(C)C1 [Compound 22-1] ?
result: 1.31
